# tested-system: TRPC5 (Homo sapiens, UniProt Q9UL62)
# Construct: expressed in transfected cells; host or cells: HEK 293
# method-notes: TRPC5 automated patch clamp assay (Qpatch), current block after rosiglitazone stimulation
# Assay type: cell-based
measured-quantity: IC50

Q: Write IC50 of O=c1[nH]ncc(N2CCc3c(ncn3Cc3cccc(C(F)(F)F)c3)C2)c1Cl ; system used: TRPC5 (Homo sapiens, UniProt Q9UL62)
Result: 1000 to 5000 nM

---

# tested-system: TRPC5 (Homo sapiens, UniProt Q9UL62)
# Construct: expressed in transfected cells; host or cells: HEK 293
# method-notes: TRPC5 automated patch clamp assay (Qpatch), current block after rosiglitazone stimulation
# Assay type: cell-based
# applied-conditions: Table 6; HEK293 cells overexpressing TRPC5; read-out: TRPC5-QPatch IC50
measured-quantity: IC50

# compound, tested-system, IC50
data = [
    ("Cc1nc2c(n1Cc1ccccc1C(F)(F)F)CCN(c1cn[nH]c(=O)c1Cl)C2", "TRPC5 (Homo sapiens, UniProt Q9UL62)", "0.01 to 1000 nM"),
    ("O=c1[nH]ncc(N2CCc3c(cnn3Cc3ccc(F)cc3C(F)(F)F)C2)c1Cl [drawing 864]", "TRPC5 (Homo sapiens, UniProt Q9UL62)", "0.01 to 1000 nM"),
    ("O=c1[nH]ncc(N2CCc3c(ncn3Cc3ccccc3C(F)(F)F)C2)c1Cl [drawing 850]", "TRPC5 (Homo sapiens, UniProt Q9UL62)", "0.01 to 1000 nM"),
    ("O=c1[nH]ncc(N2CCc3c(nnn3C3CCCCC3)C2)c1Cl", "TRPC5 (Homo sapiens, UniProt Q9UL62)", "5000 to 10000 nM"),
]

Shifting focus to the compound that follows.
Q: Identify measured IC50 associated with CCc1cccnc1Cn1cnc2c1CCN(c1cn[nH]c(=O)c1Cl)C2
Result: 1000 to 5000 nM

---

# tested-system: TRPC4 (Homo sapiens)
# Construct: expressed in transfected cells; host or cells: HEK-TREx (HekTrex-293), cell line ICLN-1694, tetracycline-induced
# Sequence (Q9UBN4 1-982 isoform Q9UBN4-5): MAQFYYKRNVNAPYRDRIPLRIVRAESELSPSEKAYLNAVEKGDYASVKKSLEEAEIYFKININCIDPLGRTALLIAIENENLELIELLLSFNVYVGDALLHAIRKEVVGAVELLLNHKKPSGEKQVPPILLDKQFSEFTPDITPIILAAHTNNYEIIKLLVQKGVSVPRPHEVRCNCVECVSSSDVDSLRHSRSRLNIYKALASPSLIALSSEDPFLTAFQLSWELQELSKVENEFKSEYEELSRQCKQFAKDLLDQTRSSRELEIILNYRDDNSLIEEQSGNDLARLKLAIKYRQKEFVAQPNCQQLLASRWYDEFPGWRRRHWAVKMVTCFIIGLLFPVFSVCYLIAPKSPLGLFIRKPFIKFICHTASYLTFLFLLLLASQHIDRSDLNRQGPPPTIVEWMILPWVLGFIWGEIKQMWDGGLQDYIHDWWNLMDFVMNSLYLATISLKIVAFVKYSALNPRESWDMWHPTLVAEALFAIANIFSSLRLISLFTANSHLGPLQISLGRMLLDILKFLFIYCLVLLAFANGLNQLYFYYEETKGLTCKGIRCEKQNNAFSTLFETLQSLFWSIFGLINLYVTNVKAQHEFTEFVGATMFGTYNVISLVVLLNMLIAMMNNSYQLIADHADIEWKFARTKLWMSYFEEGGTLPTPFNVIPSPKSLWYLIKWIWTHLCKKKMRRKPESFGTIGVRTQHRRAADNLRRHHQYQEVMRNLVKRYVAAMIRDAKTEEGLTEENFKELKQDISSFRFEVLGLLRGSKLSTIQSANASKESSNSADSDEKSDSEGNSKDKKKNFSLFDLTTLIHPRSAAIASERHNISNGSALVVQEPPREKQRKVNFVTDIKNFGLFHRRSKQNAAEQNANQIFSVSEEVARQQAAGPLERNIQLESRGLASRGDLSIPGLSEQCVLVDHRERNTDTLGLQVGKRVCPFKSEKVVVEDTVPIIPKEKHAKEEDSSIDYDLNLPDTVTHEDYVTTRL
# method-notes: TRPC4 FLIPR Assay (HEK-TREx hTRPC4, Englerin A stimulation)
# Type: cell-based
# applied-conditions: Table 8; HEK-TREx hTRPC4; read-out: TRPC4 FLIPR IC50
pIC50: −log10 of the molar value.
// reported pIC50 for each item listed

# molecule, pIC50
records = [
    ("COCc1ncccc1Cn1cnc2c1CCN(c1cn[nH]c(=O)c1Cl)C2 [drawing 966]", "5.30 to 6.00"),
    ("O=c1[nH]ncc(N2CCc3c(Cc4ccc(F)cc4C(F)(F)F)n[nH]c3C2)c1Cl [drawing 1005]", "6.00 to 11.00"),
    ("O=c1[nH]ncc(N2CCc3c(cnn3Cc3ccc(F)cc3C(F)(F)F)C2)c1Cl [drawing 951]", "6.00 to 11.00"),
    ("O=c1[nH]ncc(N2CCc3c(nnn3Cc3ccccc3C(F)(F)F)C2)c1Cl [drawing 948]", "6.00 to 11.00"),
    ("CCN(c1ncc2c(n1)CN(c1cn[nH]c(=O)c1Cl)C2)c1ccccc1Cl [drawing 1004]", "6.00 to 11.00"),
]

Q: Identify measured pIC50 associated with CCc1cc(F)ccc1Cn1cnc2c1CCN(c1cn[nH]c(=O)c1Cl)C2 [drawing 958]
Result: 6.00 to 11.00

Q: Identify measured pIC50 associated with C[C@@H](c1ccccc1)n1nnc2c1CCN(c1cn[nH]c(=O)c1Cl)C2
Result: 5.30 to 6.00

Q: Identify measured pIC50 associated with CNC(=O)c1nc2c(n1Cc1ccccc1C(F)(F)F)CCN(c1cn[nH]c(=O)c1Cl)C2 [drawing 996]
Result: 6.00 to 11.00

Q: Identify measured pIC50 associated with O=c1[nH]ncc(N2CCc3c(ncn3Cc3ccccc3)C2)c1Cl [drawing 939]
Result: 6.00 to 11.00

Q: Identify measured pIC50 associated with Cc1cc(F)ccc1CN1CCN(c2cn[nH]c(=O)c2Cl)CC1 [drawing 1012]
Result: 5.00 to 5.30

Q: Identify measured pIC50 associated with O=C1CN(c2cn[nH]c(=O)c2Cl)CCN1Cc1ccc(F)cc1Cl [drawing 1013]
Result: 6.00 to 11.00

Q: Identify measured pIC50 associated with C[C@@H]1CN(Cc2ccccc2C(F)(F)F)CCN1c1cn[nH]c(=O)c1Cl [drawing 1016]
Result: 5.00 to 5.30

Q: Identify measured pIC50 associated with CN(c1ncc2c(n1)CN(c1cn[nH]c(=O)c1Cl)C2)c1ccc(F)cc1Cl [drawing 1003]
Result: 6.00 to 11.00

Q: Identify measured pIC50 associated with Cc1ccccc1[C@@H](C)N1CCN(c2cn[nH]c(=O)c2Cl)CC1=O
Result: 6.00 to 11.00

Q: Identify measured pIC50 associated with CCc1nccc(C)c1CN1CCN(c2cn[nH]c(=O)c2Cl)CC1
Result: 5.30 to 6.00

Q: Identify measured pIC50 associated with N#Cc1c(N2CCc3c(ncn3Cc3ccccc3C(F)(F)F)C2)cn[nH]c1=O [drawing 956]
Result: 5.30 to 6.00

Q: Identify measured pIC50 associated with C[C@H](c1ccccc1C(F)F)n1nnc2c1CCN(c1cn[nH]c(=O)c1Cl)C2 [drawing 977]
Result: 6.00 to 11.00

Q: Identify measured pIC50 associated with C[C@@H](c1ccc(F)cc1C(F)(F)F)N1CCN(c2cn[nH]c(=O)c2Cl)CC1=O [drawing 993]
Result: 6.00 to 11.00

Q: Identify measured pIC50 associated with O=c1[nH]ncc(N2CCc3c(ncn3Cc3ccccc3Cl)C2)c1Cl [drawing 1000]
Result: 6.00 to 11.00

Q: Identify measured pIC50 associated with C[C@@H](c1ccc(F)cc1C(F)F)n1nnc2c1CCN(c1cn[nH]c(=O)c1Cl)C2 [drawing 981]
Result: 6.00 to 11.00

Q: Identify measured pIC50 associated with CN1CCN(Cc2nn(Cc3ccccc3C(F)F)c3c2CN(c2cn[nH]c(=O)c2Cl)CC3)C(=O)C1 [drawing 975]
Result: 6.00 to 11.00

Q: Identify measured pIC50 associated with CCc1ncccc1CN1CCN(c2cn[nH]c(=O)c2Cl)C(C)C1 (centres unmarked)
Result: 5.00 to 5.30

Q: Identify measured pIC50 associated with COC[C@H](c1ccccc1C(F)(F)F)n1cnc2c1CCN(c1cn[nH]c(=O)c1Cl)C2 [drawing 988]
Result: 6.00 to 11.00

Q: Identify measured pIC50 associated with O=C1CN(c2cn[nH]c(=O)c2Cl)CCN1Cc1ccccc1Cl
Result: 6.00 to 11.00

Q: Identify measured pIC50 associated with CCS(=O)(=O)c1nc2c(n1Cc1ccccc1C(F)(F)F)CCN(c1cn[nH]c(=O)c1Cl)C2 [drawing 971]
Result: 6.00 to 11.00

Q: Identify measured pIC50 associated with CC(c1ccc(F)cc1C(F)F)n1[nH]c(=O)c2c1CCN(c1cn[nH]c(=O)c1Cl)C2 (centres unmarked)
Result: 6.00 to 11.00

Q: Identify measured pIC50 associated with O=c1[nH]ncc(N2CCc3c(ncn3Cc3ccccc3C(F)(F)F)C2)c1Br [drawing 950]
Result: 6.00 to 11.00

Q: Identify measured pIC50 associated with O=c1[nH]ncc(N2CCc3c(ncn3Cc3ccccc3C(F)F)C2)c1Cl [drawing 952]
Result: 6.00 to 11.00

---

# tested-system: TRPC5 (Homo sapiens, UniProt Q9UL62)
# Construct: expressed in transfected cells; host or cells: HEK 293
# Sequence (Q9UL62 1-973): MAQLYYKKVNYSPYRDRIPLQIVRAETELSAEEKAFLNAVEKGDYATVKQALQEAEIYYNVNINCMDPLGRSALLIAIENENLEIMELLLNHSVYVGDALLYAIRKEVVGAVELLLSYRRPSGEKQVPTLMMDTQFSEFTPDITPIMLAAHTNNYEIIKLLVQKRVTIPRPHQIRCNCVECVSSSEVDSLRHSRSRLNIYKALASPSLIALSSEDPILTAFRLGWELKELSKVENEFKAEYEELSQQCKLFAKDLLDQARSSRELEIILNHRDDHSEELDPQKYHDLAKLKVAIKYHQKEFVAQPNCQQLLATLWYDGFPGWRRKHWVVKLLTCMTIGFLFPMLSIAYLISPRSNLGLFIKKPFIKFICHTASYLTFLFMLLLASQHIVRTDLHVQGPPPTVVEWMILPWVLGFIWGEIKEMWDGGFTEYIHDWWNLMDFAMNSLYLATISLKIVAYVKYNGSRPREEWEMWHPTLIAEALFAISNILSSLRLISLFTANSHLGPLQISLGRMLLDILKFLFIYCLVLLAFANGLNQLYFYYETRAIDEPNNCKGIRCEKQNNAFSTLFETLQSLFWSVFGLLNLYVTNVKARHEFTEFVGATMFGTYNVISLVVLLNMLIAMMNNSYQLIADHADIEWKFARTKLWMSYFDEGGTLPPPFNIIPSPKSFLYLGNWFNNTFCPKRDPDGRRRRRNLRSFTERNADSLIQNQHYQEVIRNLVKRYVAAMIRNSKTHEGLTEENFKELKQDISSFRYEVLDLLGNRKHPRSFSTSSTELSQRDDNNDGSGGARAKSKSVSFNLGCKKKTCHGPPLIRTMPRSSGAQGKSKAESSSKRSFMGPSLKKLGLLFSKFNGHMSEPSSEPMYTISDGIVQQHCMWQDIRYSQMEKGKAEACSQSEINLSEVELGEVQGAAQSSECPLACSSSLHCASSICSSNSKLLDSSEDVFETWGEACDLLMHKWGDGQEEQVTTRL
# method-notes: TRPC5 automated patch clamp assay (Qpatch), current block after rosiglitazone stimulation
# Format: cell-based
# applied-conditions: Table 5; HEK293 cells overexpressing TRPC5; rosiglitazone stimulation; 100 mV; read-out: TRPC5_QP_ XC50_100
measured-quantity: IC50

// worked examples, IC50 included
# molecule, tested-system, IC50
data = [
    ("Cc1n[nH]c(=O)c(N2CCN(Cc3ccccc3C(F)(F)F)C(=O)C2)c1Cl", "TRPC5 (Homo sapiens, UniProt Q9UL62)", "5 to 10 µM"),
    ("CC[C@@H](c1ccccc1)N1CCN(c2cn[nH]c(=O)c2Cl)CC1", "TRPC5 (Homo sapiens, UniProt Q9UL62)", "1 to 5 µM"),
    ("O=C1CN(c2c(Br)n[nH]c(=O)c2Cl)CCN1Cc1ccccc1C(F)(F)F", "TRPC5 (Homo sapiens, UniProt Q9UL62)", "5 to 10 µM"),
    ("O=C1CN(c2cn[nH]c(=O)c2Cl)CCN1Cc1cccnc1Cl", "TRPC5 (Homo sapiens, UniProt Q9UL62)", "10 to 500 µM"),
    ("Cc1cc(N2CCN(Cc3ccc(F)cc3C)C(=O)C2)c(=O)[nH]n1", "TRPC5 (Homo sapiens, UniProt Q9UL62)", "10 to 500 µM"),
    ("Cc1ncccc1CN1CCN(c2cn[nH]c(=O)c2Cl)CC1=O", "TRPC5 (Homo sapiens, UniProt Q9UL62)", "10 to 500 µM"),
    ("COc1cn[nH]c(=O)c1N1CCN(Cc2ccc(F)cc2C)CC1", "TRPC5 (Homo sapiens, UniProt Q9UL62)", "1 to 5 µM"),
    ("O=C1CN(c2cn[nH]c(=O)c2Cl)CCN1Cc1cccc2[nH]ncc12", "TRPC5 (Homo sapiens, UniProt Q9UL62)", "10 to 500 µM"),
    ("Cc1cc(C(F)(F)F)ccc1CN1CCN(c2cn[nH]c(=O)c2Cl)CC1=O", "TRPC5 (Homo sapiens, UniProt Q9UL62)", "10 to 500 µM"),
    ("O=C1CN(c2cn[nH]c(=O)c2Cl)CCN1CC1CCC(F)(F)CC1", "TRPC5 (Homo sapiens, UniProt Q9UL62)", "5 to 10 µM"),
]

Q: Identify measured IC50 associated with O=C1CN(c2cn[nH]c(=O)c2Cl)CCN1Cc1ccc(F)cc1C(F)(F)F
Result: 1e-05 to 1 µM

Q: Identify measured IC50 associated with Cn1nc(CN2CCN(c3cn[nH]c(=O)c3Cl)CC2)c2ccccc21
Result: 10 to 500 µM

These data points were gathered from patent US20260184708A1.
